Reference source: the supplement of paper PMC5998384

- System: HeLa Kyoto
- Protocol Summary: melting temperature (median over replicates), in situ; higher = more thermally stable
- Condition Info: cell cycle stage: G1/S
Observable: melting temperature
Could you write the number and then its unit?

Exam item: Fill in the blank: the reported melting temperature of `HNRNPAB` is ____.
Marked response: 55.3 °C

Exam item: Recorded melting temperature for MSSCSRVALVTGANRGIGLAIARELCRQFSGDVVLTARDVARGQAAVQQLQAEGLSPRFHQLDIDDLQSIRALRDFLRKEYGGLNVLVNNAAVAFKSDDPMPFDIKAEMTLKTNFFATRNMCNELLPIMKPHGRVVNISSLQCLRAFENCSEDLQERFHSETLTEGDLVDLMKKFVEDTKNEVHEREGWPNSPYGVSKLGVTVLSRILARRLDEKRKADRILVNACCPGPVKTDMDGKDSIRTVEEGAETPVYLALLPPDATEPQGQLVHDKVVQNW [CBR3] , please?
Marked response: 51.4 °C

Exam item: Value lookup for melting temperature; key = MAARVLRARGAAWAGGLLQRAAPCSLLPRLRTWTSSSNRSREDSWLKSLFVRKVDPRKDAHSNLLAKKETSNLYKLQFHNVKPECLEAYNKICQEVLPKIHEDKHYPCTLVGTWNTWYGEQDQAVHLWRYEGGYPALTEVMNKLRENKEFLEFRKARSDMLLSRKNQLLLEFSFWNEPVPRSGPNIYELRSYQLRPGTMIEWGNYWARAIRFRQDGNEAVGGFFSQIGQLYMVHHLWAYRDLQTREDIRNAAWHKHGWEELVYYTVPLIQEMESRIMIPLKTSPLQ [GBAS]
Marked response: 53.7 °C

Exam item: Give its melting temperature value. Item: MSERKVLNKYYPPDFDPSKIPKLKLPKDRQYVVRLMAPFNMRCKTCGEYIYKGKKFNARKETVQNEVYLGLPIFRFYIKCTRCLAEITFKTDPENTDYTMEHGATRNFQAEKLLEEEEKRVQKEREDEELNNPMKVLENRTKDSKLEMEVLENLQELKDLNQRQAHVDFEAMLRQHRLSEEERRRQQQEEDEQETAALLEEARKRRLLEDSDSEDEAAPSPLQPALRPNPTAILDEAPKPKRKVEVWEQSVGSLGSRPPLSRLVVVKKAKADPDCSNGQPQAAPTPGAPQNRKEANPTPLTPGASSLSQLGAYLDSDDSNGSN [CCDC94]
Marked response: 51.6 °C

Exam item: Would you kindly share the measured melting temperature for MQPPGPPPAYAPTNGDFTFVSSADAEDLSGSIASPDVKLNLGGDFIKESTATTFLRQRGYGWLLEVEDDDPEDNKPLLEELDIDLKDIYYKIRCVLMPMPSLGFNRQVVRDNPDFWGPLAVVLFFSMISLYGQFRVVSWIITIWIFGSLTIFLLARVLGGEVAYGQVLGVIGYSLLPLIVIAPVLLVVGSFEVVSTLIKLFGVFWAAYSAASLLVGEEFKTKKPLLIYPIFLLYIYFLSLYTGV [YIPF4] ?
Marked response: 57.7 °C

Further cases:
Exam item: Report melting temperature for MSEVSCKKRDDYLEWPEYFMAVAFLSAQRSKDPNSQVGACIVNSENKIVGIGYNGMPNGCSDDVLPWRRTAENKLDTKYPYVCHAELNAIMNKNSTDVKGCSMYVALFPCNECAKLIIQAGIKEVIFMSDKYHDSDEATAARLLFNMAGVTFRKFIPKCSKIVIDFDSINSRPSQKLQ [DCTD] please.
Marked response: 59.8 °C

Exam item: // lookup melting temperature for MSGCRVFIGRLNPAAREKDVERFFKGYGRIRDIDLKRGFGFVEFEDPRDADDAVYELDGKELCSERVTIEHARARSRGGRGRGRYSDRFSSRRPRNDRRNAPPVRTENRLIVENLSSRVSWQDLKDFMRQAGEVTFADAHRPKLNEGVVEFASYGDLKNAIEKLSGKEINGRKIKLIEGSKRHSRSRSRSRSRTRSSSRSRSRSRSRSRKSYSRSRSRSRSRSRSKSRSVSRSPVPEKSQKRGSSSRSKSPASVDRQRSRSRSRSRSVDSGN [SRSF5]
Marked response: 51.3 °C

====

- Tested on: HeLa Kyoto
- Protocol Summary: thermal stability score vs G1/S (z-score of summed log2 fold changes over temperatures); higher = more thermally stable than in G1/S
- Condition Info: cell cycle stage: mitosis
Observable: thermal stability score
Respond numerically, and do not add a unit to the figure.

Exam item: For MSSCSRVALVTGANRGIGLAIARELCRQFSGDVVLTARDVARGQAAVQQLQAEGLSPRFHQLDIDDLQSIRALRDFLRKEYGGLNVLVNNAAVAFKSDDPMPFDIKAEMTLKTNFFATRNMCNELLPIMKPHGRVVNISSLQCLRAFENCSEDLQERFHSETLTEGDLVDLMKKFVEDTKNEVHEREGWPNSPYGVSKLGVTVLSRILARRLDEKRKADRILVNACCPGPVKTDMDGKDSIRTVEEGAETPVYLALLPPDATEPQGQLVHDKVVQNW [CBR3] , what is its reported thermal stability score?
Marked response: 0.085

More entries:
Exam item: Any idea what its thermal stability score is? The sequence is MAKVSELYDVTWEEMRDKMRKWREENSRNSEQIVEVGEELINEYASKLGDDIWIIYEQVMIAALDYGRDDLALFCLQELRRQFPGSHRVKRLTGMRFEAMERYDDAIQLYDRILQEDPTNTAARKRKIAIRKAQGKNVEAIRELNEYLEQFVGDQEAWHELAELYINEHDYAKAAFCLEELMMTNPHNHLYCQQYAEVKYTQGGLENLELSRKYFAQALKLNNRNMRALFGLYMSASHIASNPKASAKTKKDNMKYASWAASQINRAYQFAGRSKKETKYSLKAVEDMLETLQITQS [EMC2]
Marked response: -1.88

====

Items are presented alongside their recorded solubility in G1/S (log2).
- Test system: HeLa Kyoto
- Protocol Summary: solubility in G1/S (NP-40 vs SDS abundance) (log2 ratio); higher = more soluble
- Condition Info: cell cycle stage: G1/S

Exam item: Return solubility in G1/S (log2) measured with HeLa Kyoto given this sequence: MNMIWRNSISCLRLGKVPHRYQSGYHPVAPLGSRILTDPAKVFEHNMWDHMQWSKEEEAAARKKVKENSAVRVLLEEQVKYEREASKYWDTFYKIHKNKFFKDRNWLLREFPEILPVDQKPEEKARESSWDHVKTSATNRFSRMHCPTVPDEKNHYEKSSGSSEGQSKTESDFSNLDSEKHKKGPMETGLFPGSNATFRILEVGCGAGNSVFPILNTLENSPESFLYCCDFASGAVELVKSHSSYRATQCFAFVHDVCDDGLPYPFPDGILDVILLVFVLSSIHPDRTLFI [METTL8]
Marked response: -0.312

Further cases:
Exam item: Missing value: solubility in G1/S (log2), HeLa Kyoto, entry MAGSYPEGAPAILADKRQQFGSRFLSDPARVFHHNAWDNVEWSEEQAAAAERKVQENSIQRVCQEKQVDYEINAHKYWNDFYKIHENGFFKDRHWLFTEFPELAPSQNQNHLKDWFLENKSEVCECRNNEDGPGLIMEEQHKCSSKSLEHKTQTPPVEENVTQKISDLEICADEFPGSSATYRILEVGCGVGNTVFPILQTNNDPGLFVYCCDFSSTAIELVQTNSEYDPSRCFAFVHDLCDEEKSYPVPKGSLDIIILIFVLSAVVPDKMQKAINRLSRLLKPGGMVLLRDYGRYDMAQLRFKKGQCLSGNFYVRGDGTRVYFFTQEELDTLFTTAGLEKVQNLVDRRLQVNRGKQLTMYRVWIQCKYCKPLLSSTS [METTL2B] . Fill in?
Marked response: 0.19

====

- Test system: HeLa Kyoto
- Protocol Summary: thermal stability score vs G1/S (z-score of summed log2 fold changes over temperatures); higher = more thermally stable than in G1/S
- Condition Info: cell cycle stage: mitosis
Observable: thermal stability score
# answer = number (no unit)

Completed entries (count: 3):
Exam item: Would you kindly share the measured thermal stability score for MAGDVGGRSCTDSELLLHPELLSQEFLLLTLEQKNIAVETDVRVNKDSLTDLYVQHAIPLPQRDLPKNRWGKMMEKKREQHEIKNETKRSSTVDGLRKRPLIVFDGSSTSTSIKVKKTENGDNDRLKPPPQASFTSNAFRKLSNSSSSVSPLILSSNLPVNNKTEHNNNDAKQNHDLTHRKSPSGPVKSPPLSPVGTTPVKLKRAAPKEEAEAMNNLKPPQAKRKIQHVTWP [C2ORF49] ?
Marked response: -1.02

Exam item: Find the recorded thermal stability score belonging to MPVVRKIFRRRRGDSESEEDEQDSEEVRLKLEETREVQNLRKRPNGVSAVALLVGEKVQEETTLVDDPFQMKTGGMVDMKKLKERGKDKISEEEDLHLGTSFSAETNRRDEDADMMKYIETELKKRKGIVEHEEQKVKPKNAEDCLYELPENIRVSSAKKTEEMLSNQMLSGIPEVDLGIDAKIKNIISTEDAKARLLAEQQNKKKDSETSFVPTNMAVNYVQHNRFYHEELNAPIRRNKEEPKARPLRVGDTEKPEPERSPPNRKRPANEKATDDYHYEKFKKMNRRY [C9ORF78] and report it.
Marked response: -4.34

Exam item: Sample MASKRALVILAKGAEEMETVIPVDVMRRAGIKVTVAGLAGKDPVQCSRDVVICPDASLEDAKKEGPYDVVVLPGGNLGAQNLSESAAVKEILKEQENRKGLIAAICAGPTALLAHEIGFGSKVTTHPLAKDKMMNGGHYTYSENRVEKDGLILTSRGPGTSFEFALAIVEALNGKEVAAQVKAPLVLKD [PARK7] — what was its thermal stability score?
Marked response: -0.859

Further cases:
Exam item: Need thermal stability score of MSLRKQTPSDFLKQIIGRPVVVKLNSGVDYRGVLACLDGYMNIALEQTEEYVNGQLKNKYGDAFIRGNNVLYISTQKRRM [LSM6] , thanks.
Marked response: -2.63

Exam item: Looking for the measured thermal stability score of MAGLGHPAAFGRATHAVVRALPESLGQHALRSAKGEEVDVARAERQHQLYVGVLGSKLGLQVVELPADESLPDCVFVEDVAVVCEETALITRPGAPSRRKEVDMMKEALEKLQLNIVEMKDENATLDGGDVLFTGREFFVGLSKRTNQRGAEILADTFKDYAVSTVPVADGLHLKSFCSMAGPNLIAIGSSESAQKALKIMQQMSDHRYDKLTVPDDIAANCIYLNIPNKGHVLLHRTPEEYPESAKVYEKLKDHMLIPVSMSELEKVDGLLTCCSVLINKKVDS [DDAH1] , can you help?
Marked response: -0.764

Exam item: Given the sequence MAASEAAVVSSPSLKTDTSPVLETAGTVAAMAATPSARAAAAVVAAAARTGSEARVSKAALATKLLSLSGVFAVHKPKGPTSAELLNRLKEKLLAEAGMPSPEWTKRKKQTLKIGHGGTLDSAARGVLVVGIGSGTKMLTSMLSGSKRYTAIGELGKATDTLDSTGRVTEEKPYDKITQEDIEGILQKFTGNIMQVPPLYSALKKDGQRLSTLMKRGEVVEAKPARPVTVYSISLQKFQPPFFTLDVECGGGFYIRSLVSDIGKELSSCANVLELTRTKQGPFTLEEHALPEDKWTIDDIAQSLEHCSSLFPAELALKKSKPESNEQVLSCEYITLNEPKREDDVIKTC [TRUB1] , what is its reported thermal stability score?
Marked response: 1.46
